# TARGET ENTITY: Kappa-type opioid receptor (Homo sapiens, UniProt P41145)
# Sequence (P41145 whole entry): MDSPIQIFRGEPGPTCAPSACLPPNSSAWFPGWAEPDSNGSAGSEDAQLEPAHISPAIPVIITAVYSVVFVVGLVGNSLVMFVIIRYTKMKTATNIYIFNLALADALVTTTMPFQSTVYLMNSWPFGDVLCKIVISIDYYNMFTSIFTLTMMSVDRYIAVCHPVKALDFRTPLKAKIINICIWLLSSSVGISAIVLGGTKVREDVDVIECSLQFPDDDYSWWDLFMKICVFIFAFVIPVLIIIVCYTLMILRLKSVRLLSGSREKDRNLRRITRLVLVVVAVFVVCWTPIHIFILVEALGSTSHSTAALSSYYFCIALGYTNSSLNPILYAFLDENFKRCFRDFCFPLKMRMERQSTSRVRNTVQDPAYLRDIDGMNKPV
# METHOD: Displacement of [3H]U-69,593 from human kappa opioid receptor expressed in CHO cell membranes by microbeta scintillation counting analysis
# STUDY CONDITIONS: read-out: Ki

SMILES INPUT | Ki
O=C1/C(=C/c2ccccc2F)C[C@@]2(O)[C@H]3Cc4ccc(O)c5c4[C@@]2(CCN3CC2CC2)[C@H]1O5 | 35.1 nM
COc1ccc(/C=C2\C[C@@]3(O)[C@H]4Cc5ccc(O)c6c5[C@@]3(CCN4CC3CC3)[C@@H](O6)C2=O)cc1 | 27.8 nM
O=C1/C(=C/c2ccc(C(F)(F)F)cc2)C[C@@]2(O)[C@H]3Cc4ccc(O)c5c4[C@@]2(CCN3CC2CC2)[C@H]1O5 | 176 nM
O=C1/C(=C/c2ccc(I)cc2)C[C@@]2(O)[C@H]3Cc4ccc(O)c5c4[C@@]2(CCN3CC2CC2)[C@H]1O5 | 126 nM
